B1: DVL3 (parent)
chain: FCADNPSELPPPMERTGGIGDSRP

Variants of: B1
Assay: protein stability index of a GFP-peptide fusion (GPS, HEK-293T) (PSI 1-6); higher = more stable;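 also: lentivirally expressed fusions sorted by FACS into six bins by GFP to DsRed ratio, PSI derived from sequencing read proportions per bin multiplied by bin number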
Conditions: c terminus: a fixed tail appended
Threshold rule: protein stability index greater than or equal to 4 is t; below that, f.

Data request: Would you say G18Q shows protein stability index at minimum 4?
Data returned: t

Data request: Can you check G20Y next?
Data returned: f

Data request: Likewise for R23Q ?
Data returned: t

Data request: What do you have for S7F ?
Data returned: t

Data request: Next variant: M13Q
Data returned: t

Data request: // repeat for S22Y and report
Data returned: t

Data request: Okay, and P24Y ?
Data returned: f

Data request: Quick one: S22P
Data returned: t

Data request: Then what about the variant P6Y ?
Data returned: t

Data request: Similarly, G18L ?
Data returned: t

Data request: // same read-out, input: P12L
Data returned: t

Data request: Would you mind doing E14F as well?
Data returned: f

Data request: For P10S then?
Data returned: t

Data request: Thanks! And P11N ?
Data returned: t

Data request: Queued: C2N
Data returned: t

Data request: Consider next the variant P10V in the same way.
Data returned: t

Data request: Now try A3T .
Data returned: t

Data request: Another variant to look at: L9E
Data returned: t

Data request: Check P24H too.
Data returned: t

Data request: Now give it for P6W too.
Data returned: f

Data request: Request: N5I
Data returned: t

Data request: How about this variant: I19M
Data returned: t

Data request: And what about the variant N5F ?
Data returned: f

Data request: Moving on to the next variant: P24F
Data returned: f

Data request: Also check G17S
Data returned: t

Data request: // query: P11S
Data returned: t
